These data points were gathered from PubChem BioAssay.

Test: probe aNOTCH2 binding on compound microarray – biochemical, small-molecule microarray, 635/667 nm fluorescence, primary screen (AID 1121);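 also: score merges feature fluorescence read at 667 nm with its signal to noise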
Details: higher = more signal
reportedEndpoint: composite z-score

Recorded composite z-score, per entry:
>>> assayresult("COc1cc2c(cc1OC)CN(C(=O)[C@@H]1[C@H]3C(=O)O[C@H](c4ccccc4)[C@H](c4ccccc4)N3[C@H](c3ccc(O)cc3)[C@@]13C(=O)Nc1ccc(C#CCNC(N)=O)cc13)CC2")
-0.182
>>> assayresult("Cc1ccc(S[C@]2(C(=O)O)CC(=O)N(C3CCCCC3)[C@@H]2c2ccc(CO)cc2)cc1")
0.0394
>>> assayresult("CC(C)C(CO)N1C(=O)[C@@H]2[C@H]3C(=O)OCC=C[C@H]3OC23C=CCN(Cn2nnc4ccccc42)C(=O)[C@@H]13 (stereo not given in full)")
-0.204
>>> assayresult("CCCCC(=C=CC[C@H](O)c1ccccc1OCCO)C[C@H](O)c1ccccn1")
-0.164
>>> assayresult("[N-]=[N+]=NCc1ccccc1C[C@@]1(C(=O)NCCN2CCOCC2)N=C(c2ccc(OCCCO)cc2)O[C@@H]1c1ccccc1CN=[N+]=[N-]")
0.12
>>> assayresult("CCCNC(=O)[C@@]1(Sc2ccc(C)cc2)CC(=O)N(Cc2ccccc2)[C@@H]1c1ccc(CO)cc1I")
-0.115
>>> assayresult("COc1cc(NN2C(C(O)c3ccc(I)cc3)C=CC3C(=O)N(C)C(=O)C32)cc(OC)c1OC (stereo not given)")
0.0586
>>> assayresult("Cc1cc(C)c(C(O)C2C=CC3C(=O)N(c4ccccc4)C(=O)C3N2Nc2ccc([N+](=O)[O-])cc2)c(C)c1 (stereo not given)")
0.149
>>> assayresult("CO[C@H]1O[C@H](CO)[C@@H](OC(=O)Nc2cccc(F)c2)[C@H](OC(=O)Nc2ccc3c(c2)OCO3)[C@H]1OC(=O)Nc1ccc2c(c1)OCO2")
-0.0508
>>> assayresult("COc1cccc(C[C@H]2C[C@@H](CO[Si](C(C)C)(C(C)C)C(C)C)N3C(=O)[C@]4(C(C)=O)O[C@]23[C@H]2C(=O)N(C)C(=O)[C@H]24)c1")
-0.148

Measured composite z-score of COC(=O)c1ccc(OC)c(/C=C\CC(CCc2ccccc2)OC(=O)c2ccncc2)c1 (stereo not given) : -0.225

response.value for C=C(/C(=C/C[C@@H](OC(C)=O)c1ccccc1OCCO)c1cnc2ccccc2c1)C(C)C (field: composite z-score) = -0.0859

For record C=CCN1C(=O)[C@@]2(O[C@@H](CCO)[C@H]([Si](C)(C)c3ccc(OC)cc3)[C@H]2C)c2cc(NC(=O)[C@H](C)O)ccc21 the listed composite z-score is -0.126

compound COC(=O)C(CC#Cc1ccc2c(c1)[C@]1(C(=O)N2)[C@H](c2ccc(O)cc2)N2[C@H](c3ccccc3)[C@H](c3ccccc3)OC(=O)[C@H]2[C@@H]1C(N)=O)C(=O)OC , composite z-score observed: -0.118

Record summary for O=C1c2ccccc2C(=O)C2CC([C@H]3Oc4ccccc4S(=O)(=O)N4CCC[C@@H]34)=CCC12 (stereo not given in full) : reported composite z-score = -0.117
